# System: SN12C renal
# assay: NCI tumour cell line growth inhibition, 48 h
Where a SMILES comes first, the peptide text is derived from it. The star is where a group is joined. Boc = CC(C)(C)OC(=O)*; nBu = CCCC*
Would you kindly list TGI for each of these compounds?

Record CCSC1=N/C(=C\c2ccco2)C(=O)N1 ; system SN12C renal; TGI = > 100 µM

Record CCCCOc1ccc(CC(NC(=O)OC(C)(C)C)C(=O)NC(C)C(=O)NC(Cc2ccccc2)C(=O)NCC(N)=O)cc1 (centres undefined) (Boc-Y(nBu)AFG-NH2; configuration not given here) ; system SN12C renal; TGI = > 100 µM

Record COc1ccc(-c2nc(Nc3ccccc3)sc2Cc2sc(Nc3ccccc3)nc2-c2ccc(OC)cc2)cc1 ; system SN12C renal; TGI = > 100 µM

Record N#CCc1cccc(CC#N)c1Br ; system SN12C renal; TGI = > 100 µM

Record C=C1C(=O)O[C@H]2C1C[C@H](O)[C@@]1(C)OC1CC[C@@]1(C)O[C@H]21 (some centres undefined) ; system SN12C renal; TGI = 32.4 µM

Record COc1ccc(/C=C/C(=O)c2cc3c(N)c(C(=O)Nc4ccc(OC)cc4)sc3nc2C)cc1 ; system SN12C renal; TGI = > 50 µM

Record CN1CCc2ccccc2C(C(=O)c2ccc3c(c2)OCO3)C1=O (centres undefined) ; system SN12C renal; TGI = > 100 µM

Record COc1cc(/C=C2\SC(N3CCCCC3)=NC2=O)ccc1OCCCCCCOc1ccc(/C=C2\SC(N3CCCCC3)=NC2=O)cc1OC ; system SN12C renal; TGI = > 100 µM

Record O=c1c(Sc2c(SCSc3cnc4ccccc4c3Sc3c[nH]c4ccccc4c3=O)cnc3ccccc23)c[nH]c2ccccc12 ; system SN12C renal; TGI = > 100 µM

###

# Tested on: MCF7 breast
# assay: NCI tumour cell line growth inhibition, 48 h; in the data active = GI50 below about 0.43 µM; inactive = the rest
Select the correct class. Options are active, inactive and nothing else.

Q: I would be grateful if you could indicate the recorded call for Nn1c(-c2ccc(Cl)cc2)nc2c(-c3ccc(Cl)cc3)nc3ccc(Cl)cc3c2c1=O .
Ans: inactive

Q: I would be grateful if you could indicate the recorded call for NC(=O)/C(=C/n1cnc(-c2cc(C(F)(F)F)cc(C(F)(F)F)c2)n1)c1cncnc1 .
Ans: active

Q: I would be grateful if you could indicate the recorded call for CSC1=Nc2c(c(C)c(-c3ccccc3)n2COC(CO)CO)C2=NC(=O)CC(C)N12 (stereo not given) .
Ans: inactive

Q: I would be grateful if you could indicate the recorded call for Cc1cc(S(N)(=O)=O)c(S/C(=N\NS(=O)(=O)c2ccccc2)c2ccc(Cl)cc2)cc1Cl .
Ans: inactive

Q: I would be grateful if you could indicate the recorded call for COc1ccc(/C=C/C(=O)c2cc3c(N)c(C(=O)Nc4ccc(OC)cc4)sc3nc2C)cc1 .
Ans: active

Q: I would be grateful if you could indicate the recorded call for C=C1C[C@@H]2O[C@H]3[C@H]4[C@@H](CC[C@@](C)(OC(=O)CCC)[C@H]42)[C@@H](C)C(=O)O[C@@]3(C)CC[C@H]1OO .
Ans: inactive

Q: I would be grateful if you could indicate the recorded call for COc1ccc2c(c1OC)O/C(=C\c1ncc([N+](=O)[O-])n1C)C2=O .
Ans: inactive

Q: I would be grateful if you could indicate the recorded call for C#C[C@]1(O)CC[C@H]2[C@@H]3CC=C4c5nc(N)sc5CC[C@]4(C)[C@H]3CC[C@@]21C .
Ans: inactive

Q: I would be grateful if you could indicate the recorded call for NCCCN=c1ccc2c3c1c(O)c1c(O)ccc(=O)c1c3[nH]n2CCNCCO .
Ans: inactive

Q: I would be grateful if you could indicate the recorded call for COc1cc2cc(Oc3cccc(NC(=O)Nc4cc(C(F)(F)F)cc(C(F)(F)F)c4)c3)c(C)nc2cc1OC .
Ans: inactive

Q: I would be grateful if you could indicate the recorded call for COc1ccc(-c2csc(Nc3cccc(-c4csc(C)n4)c3)n2)cc1 .
Ans: active

Q: I would be grateful if you could indicate the recorded call for COc1cccc(-c2nc3sccn3c2-c2ccnc(NCCCNS(=O)(=O)c3ccccc3)c2)c1 .
Ans: inactive

Q: I would be grateful if you could indicate the recorded call for COc1cc(-c2nn(-c3cccc(NC(=O)CCN4CCN(c5ccccc5)CC4)c3)cc2-c2ccncc2)ccc1Cl .
Ans: inactive

Q: I would be grateful if you could indicate the recorded call for Cc1ccc(C2CC(c3ccc(Nc4ccnc5cc(Cl)ccc45)cc3)=NN2C=O)cc1 (stereo not given) .
Ans: inactive

Q: I would be grateful if you could indicate the recorded call for COc1ccc(C2=Nn3c(nnc3-n3nc(C)cc3C)SC2)cc1 .
Ans: active

###

Would you kindly list TGI for each of these compounds?
# Tested on: K-562 leukemia
# assay: NCI tumour cell line growth inhibition, 48 h
Give the quantity in µM, number only.

Record COc1cc(OC)c2c(=O)c3cccc(C)c3n(C)c2c1 , field TGI: 59.4

Record O=[N+]([O-])/C(Cl)=C(/C(Cl)=C(Cl)Cl)N1CCOCC1 , field TGI: 12.8

Record CS(=O)(=O)Nc1cc(-c2ccc3ncnc(Nc4cccc(Cl)c4)c3c2)cnc1Cl , field TGI: 59.8

###

# Test system: MDA-N
# assay: NCI tumour cell line growth inhibition, 48 h
readout.label: TGI

Record O=C1OC([C@H](O)c2cccnc2)c2ccccc21 (stereo partly specified) , field TGI: > 10 µM

Record Cn1nnc2c3c(N(CCO)CCO)ccnc3ccc21 , field TGI: > 100 µM

Record CCCCCCCCCCCCCCCCNC(=O)/C(=C\c1ccc(Cl)c(Cl)c1)NC(=O)c1ccccc1 , field TGI: > 100 µM

Record CC(=O)N1C(Nc2nccs2)CCN1c1ccccc1 (stereo unspecified) , field TGI: > 10 µM

Record O=C1Cc2cn[nH]c2-c2ccccc2N1 , field TGI: > 100 µM

Record Cc1ccc(S(=O)(=O)N/N=C2/CCC3(O)CC2(C)CCC2[C@H]3CC2(C)C)cc1 (stereo partly specified) , field TGI: 92 µM

Record N#C/C(=C(/O)CCl)c1nc2ccccc2o1 , field TGI: 15.8 µM

Record COC(=O)c1c(O)ccc2c1c1c(n2Cc2cc(OC)cc(OC)c2)C(=O)c2ccccc2C1=O , field TGI: 34.3 µM

Record Nc1nc(SCC(=O)c2ccc(Br)cc2)c2[nH]cnc2n1 , field TGI: > 100 µM

Record COC(=O)/C=C/[C@@H]1[C@H](C)N1S(=O)(=O)c1ccc(C)cc1 (stereo partly specified) , field TGI: > 100 µM

Record C=CCN1CCC(c2cc(C(=O)OCC)[nH]c2-c2cc(C)no2)C1=O (stereo unspecified) , field TGI: > 100 µM

###

# System: A549 NSCLC
# assay: NCI tumour cell line growth inhibition, 48 h
readout.label: TGI

Record Cc1cc(O)c(/C=N/C(=S)Nc2ccc(S(N)(=O)=O)cc2)c(=O)o1 , field TGI: > 100 µM

Record CCCCCC[C@H]1C(=O)O[C@H](C)[C@H](NC(=O)c2cccc(NC=O)c2OC)C(=O)O[C@@H](C)[C@@H]1OC(=O)CCC (tested in a mixture with another compound) , field TGI: 22.8 µM

Record CSC1=Nc2c(c(C)c(-c3ccccc3)n2COC(CO)CO)C2=NC(=O)CC(C)N12 (stereo unspecified) , field TGI: > 100 µM

Record Cc1ccc(S(=O)(=O)N/N=C2/CCC3(O)CC2(C)CCC2[C@H]3CC2(C)C)cc1 (stereo partly specified) , field TGI: > 100 µM

Record COc1cc(-c2nn(-c3cccc(NC(=O)CCNc4ccc(N5CCOCC5)cc4)c3)cc2-c2ccncc2)ccc1Cl , field TGI: 25.1 µM

Record COc1ccc2c(c1)C(=O)c1c-2c(OCCN(C)C)nc2cc(OC)c(OC)cc12 , field TGI: 21.5 µM

Record O=C(O)c1ccccc1NCn1c(=S)sc2ccccc21 , field TGI: > 100 µM

Record COc1cc(C2c3cc4c(cc3C(=O)C3CCC(=O)N32)OCO4)cc(OC)c1O (stereo unspecified) , field TGI: > 50 µM

Record CC(=O)c1ccc(Nc2c3ccccc3nc3occc23)cc1 , field TGI: > 35.1 µM

Record CCn1c(-c2nonc2N)nc2cnc(Oc3cccc(NC(=O)c4ccc(N(C)C)cc4)c3)cc21 , field TGI: > 25 µM

Record O=C(NCCN1CCCCC1)c1cccc(I)c1 , field TGI: > 100 µM

###

# Test system: KM12 colon
# assay: NCI tumour cell line growth inhibition, 48 h
readout.label: TGI

Record C[C@@H]1CC[C@H]2[C@H](C)C(OC3O[C@@H]4O[C@@]5(C)CC[C@H]6[C@H](C)CC[C@@H]([C@@H]3C)[C@@]46O5)O[C@@H]3O[C@@]4(C)CC[C@@H]1[C@]32O4 (stereo partly drawn) , field TGI: > 100 µM

Record COc1cc2cc(C(=O)N3CC(CCl)c4ccc([N+](C)(C)Cc5ccccc5[N+](=O)[O-])cc43)[nH]c2c(OC)c1OC (stereo not drawn) , field TGI: 10.2 µM

Record CCSC1=N/C(=C\c2ccco2)C(=O)N1 , field TGI: > 100 µM

Record COc1ccc2c(c1)C(=O)c1c-2c(OCCN(C)C)nc2cc(OC)c(OC)cc12 , field TGI: 13.4 µM

Record COc1cccc(-c2nc3sccn3c2-c2ccnc(NCCCNS(=O)(=O)c3ccccc3)c2)c1 , field TGI: > 100 µM

Record O=c1c(Sc2c(SCSc3cnc4ccccc4c3Sc3c[nH]c4ccccc4c3=O)cnc3ccccc23)c[nH]c2ccccc12 , field TGI: > 100 µM

Record C#C[C@]1(O)CC[C@H]2[C@@H]3CCc4cc(O)ccc4[C@H]3CC[C@@]21C , field TGI: > 100 µM

Record CCOC(=O)C(=CNc1ccc(F)c(F)c1)C(=O)OCC , field TGI: > 100 µM
